Biological target: T1, NativeRPtag(large)_with_Tags_and_Cys (Thermoanaerobacter tengcongensis)
T1 construct: Unlabeled in anisotropy assays; coupled through the engineered N-terminal Cys to SulfoLink agarose or maleimide plates in column, pull-down and ELISA assays
T1 chain: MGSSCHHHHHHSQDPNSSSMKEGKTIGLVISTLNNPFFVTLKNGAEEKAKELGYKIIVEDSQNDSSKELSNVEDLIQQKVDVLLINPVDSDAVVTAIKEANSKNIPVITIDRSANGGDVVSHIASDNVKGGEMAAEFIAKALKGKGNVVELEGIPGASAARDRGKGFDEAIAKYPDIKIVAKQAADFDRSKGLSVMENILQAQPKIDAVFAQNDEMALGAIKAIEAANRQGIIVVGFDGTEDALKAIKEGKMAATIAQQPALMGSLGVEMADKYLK
Experiment: fluorescence anisotropy; BME (10%)
No end group written: not given here. *: point of attachment. RhodamineB = CCN(CC)c1ccc2c(-c3ccccc3C(=O)*)c3ccc(=[N+](CC)CC)cc-3oc2c1
Each item that follows carries a reported Kd.

binder | Kd
RhodamineB-GEKIPNFIPAELKLITKENVQ (Synthetic peptide) [native RPtag(small)] | 5.3 nM
RhodamineB-KIANFIPAELKLITKANVQ (also: also used unlabeled as competitor, Rhodamine labeled in the Kd assays; also called RPtag(small) (tight)) [RPtag(small) Nd2, p5a, e18a] | 6.7 nM
